target_or_test_system: PICK1, Q9NRD5
Sequence (Q9NRD5 17-115): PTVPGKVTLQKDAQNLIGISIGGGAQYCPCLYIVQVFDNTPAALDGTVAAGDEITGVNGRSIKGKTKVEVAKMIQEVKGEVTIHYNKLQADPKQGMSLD
method_notes: holdup assay
Set-up: key: below the threshold = too weak to quantify, mostly under pKd 3.1 to 4
run_conditions: plain residues with an end cap or a label only (N-terminal biotin on a linker: ado-ado)
// reported pKd per item

{"binder": "VYPNAKVELV [PDLIM4_iso2, P50479;P50479-1]", "pKd": 4.26}
{"binder": "PRAEAEDSFL [PDGFRB, P09619]", "pKd": 4.2}
{"binder": "VKPQVSESKL [ACOT8, O14734]", "pKd": 3.84}
